Origin of measurements: the supplement of paper PMC9262897

# Test system: E. coli TESEC Mtb Alr
# Test Summary: growth (OD600 after 10 h); higher = more growth (less inhibition)
# Experimental Setup: arabinose 10000 nM; compound 0.1 mM; raw OD600 reference: median of DMSO wells 0.264, cell-free background 0.041
Where a name gives a salt, the structure may show the parent alone.
As shown below, each of these molecules has a reported growth value.
In your answer, state the number alone without any accompanying words.

Molecule	growth
CN(C)CCCN1c2ccccc2CCc2ccccc21 [Imipramine hydrochloride]	0.285

input: # get_value(readout= growth, system= E. coli TESEC Mtb Alr) for CC1CCc2cc(F)cc3c(=O)c(C(=O)O)cn1c23 (configuration not stated) [Flumequine]
output: 0.0396

input: # get_value(readout= growth, system= E. coli TESEC Mtb Alr) for COC(=O)C1=C(C)NC(C)=C(C(=O)OCC(C)C)C1c1ccccc1[N+](=O)[O-] (configuration not stated) [Nisoldipine]
output: 0.199

input: # get_value(readout= growth, system= E. coli TESEC Mtb Alr) for CCN(CC)CCCC(C)Nc1c2ccc(Cl)cc2nc2ccc(OC)cc12 (configuration not stated) [Quinacrine dihydrochloride hydrate]
output: 0.0444

input: # get_value(readout= growth, system= E. coli TESEC Mtb Alr) for Nc1nc2n[nH]nc2c(=O)[nH]1 [Azaguanine-8]
output: 0.194

input: # get_value(readout= growth, system= E. coli TESEC Mtb Alr) for CN(C)CCCC1(c2ccc(F)cc2)OCc2cc(C#N)ccc21 (configuration not stated) [Citalopram Hydrobromide]
output: 0.25

input: # get_value(readout= growth, system= E. coli TESEC Mtb Alr) for O=C(O)CCC(=O)c1ccc(-c2ccccc2)cc1 [Fenbufen]
output: 0.229

* * *

# System: E. coli TESEC Mtb Alr
# Test Summary: growth (OD600 after 10 h); higher = more growth (less inhibition)
# Experimental Setup: arabinose 10000000 nM; compound 0.1 mM; raw OD600 reference: median of DMSO wells […], cell-free background 0.052
Structures can show the parent of a compound that is named as a salt.
Quantity Name: growth
In your answer, state the number alone without any accompanying words.

Example entries and their recorded answers appear below.
> print(dat)
                                   molecule  quantity.name  result.value
1                       CCOC(=O)c1ccc(N)cc1         growth         0.323
2           Cc1nnc(NS(=O)(=O)c2ccc(N)cc2)s1         growth          0.33
3        C=CC(N)CCC(=O)O (stereo not given)         growth         0.361
4  Nc1c2c(nc3ccccc13)CCCC2O (racemic) [Hydroxytacrine maleate (R,S)]         growth         0.352

Below: the item to evaluate.
input: # get_value(readout= growth, system= E. coli TESEC Mtb Alr) for Clc1cnccn1
output: 0.325

* * *

# Test system: E. coli TESEC Mtb Alr
# Test Summary: growth (OD600 after 10 h); higher = more growth (less inhibition)
# Experimental Setup: arabinose 100000 nM; compound 0.1 mM; raw OD600 reference: median of DMSO wells 0.201, cell-free background 0.041
Where a name gives a salt, the structure may show the parent alone.
Quantity Name: growth
In your answer, state the number alone without any accompanying words.

Example entries and their recorded answers appear below.
Molecule	growth
CN1CCCN=C1/C=C/c1cccs1 [Pyrantel tartrate]	0.191
CN(C)CCN(Cc1cccs1)c1ccccn1 [Methapyrilene hydrochloride]	0.224
O=C1C(CC[S+]([O-])c2ccccc2)C(=O)N(c2ccccc2)N1c1ccccc1 (stereo not given)	0.17
COC(=O)N/N=C/c1c[n+]([O-])c2ccccc2[n+]1[O-]	0.116
OC(CCN1CCCCC1)(c1ccccc1)C1CCCCC1 (stereo not given) [Trihexyphenidyl-D,L Hydrochloride]	0.194
c1ccc2[nH]c(-c3cscn3)nc2c1	0.203
CN(Cc1cc(Br)cc(Br)c1N)C1CCCCC1 [Bromhexine hydrochloride]	0.0454
CC(C)(O/N=C(\C(=O)N[C@@H]1C(=O)N2C(C(=O)[O-])=C(C[n+]3ccccc3)CS[C@H]12)c1csc(N)n1)C(=O)O [Ceftazidime pentahydrate]	0.0423

input: Need growth, item CN[C@H]1CC[C@@H](c2ccc(Cl)c(Cl)c2)c2ccccc21
output: 0.0432

input: Need growth, item CC(=O)[C@@]1(O)CC[C@H]2[C@@H]3C[C@H](C)C4=CC(=O)C=C[C@]4(C)[C@@]3(F)[C@@H](O)C[C@@]21C
output: 0.2

* * *

# System: E. coli TESEC Mtb DapB
# Test Summary: growth (OD600 after 10 h); higher = more growth (less inhibition)
# Experimental Setup: arabinose induction (level): Low; compound 0.1 mM; raw OD600 reference: median of DMSO wells 0.227, cell-free background 0.041
Counter-ions that a name gives are not always drawn.
As shown below, each of these compounds has a reported growth value.
In your answer, state the number alone without any accompanying words.

Example entries and their recorded answers appear below.
Compound	growth
CC(C)(C)NC[C@@H](O)COc1cccc2c1CCCC2=O [(+) -Levobunolol hydrochloride]	0.224
CN1CCCC(n2nc(Cc3ccc(Cl)cc3)c3ccccc3c2=O)CC1 (stereo not drawn) [Azelastine HCl]	0.191
Fc1ccc([C@@H]2CCNC[C@H]2COc2ccc3c(c2)OCO3)cc1 [Paroxetine Hydrochloride]	0.178
CC(=O)Nc1ccc(CC(=O)O)cc1	0.203
C[C@@H]1C[C@H]2[C@@H]3C[C@H](F)C4=CC(=O)C=C[C@]4(C)[C@@]3(F)[C@@H](O)C[C@]2(C)[C@@]1(O)C(=O)COC(=O)C(C)(C)C [Flumethasone pivalate]	0.239

input: Need growth, item CCc1cccc2c3c([nH]c12)C(CC)(CC(=O)O)OCC3 (stereo not drawn)
output: 0.261

input: Need growth, item CC(C)NCC(O)c1ccc(O)c(O)c1 (single isomer, unassigned; (-)) [(-)-Isoproterenol hydrochloride]
output: 0.23

input: Need growth, item CC(C)(C)NC[C@H](O)COc1nsnc1N1CCOCC1 [Timolol maleate salt]
output: 0.258

* * *

# System: E. coli TESEC Mtb Alr
# Test Summary: growth (OD600 after 10 h); higher = more growth (less inhibition)
# Experimental Setup: arabinose 100000 nM; compound 0.1 mM; raw OD600 reference: median of DMSO wells 0.201, cell-free background 0.041
Where a name gives a salt, the structure may show the parent alone.
Classification field: MET = growth at or over 0.2; NOT MET = growth under 0.2.

input: Please check the record Cc1cn([C@H]2C=C[C@@H](CO)O2)c(=O)[nH]c1=O and state if its growth is at or above 0.2.
output: NOT MET

input: Please check the record C=C1C(=O)O[C@H]2[C@H]1CC/C(C)=C/CC[C@@]1(C)O[C@@H]21 [Parthenolide] and state if its growth is at or above 0.2.
output: MET

input: Please check the record COc1ccccc1N1CCN(CCCNc2cc(=O)n(C)c(=O)n2C)CC1 [Urapidil hydrochloride] and state if its growth is at or above 0.2.
output: NOT MET

input: Please check the record CCN(CC)CCOc1ccc(C(=C(Cl)c2ccccc2)c2ccccc2)cc1 [Clomiphene citrate (Z,E)] and state if its growth is at or above 0.2.
output: NOT MET

input: Please check the record Cn1cnc2c1c(=O)[nH]c(=O)n2C and state if its growth is at or above 0.2.
output: MET

* * *

# Tested on: E. coli TESEC Mtb Alr
# Test Summary: growth (OD600 after 10 h); higher = more growth (less inhibition)
# Experimental Setup: arabinose 10000000 nM; compound 0.1 mM; raw OD600 reference: median of DMSO wells 0.146, cell-free background 0.041
Structures can show the parent of a compound that is named as a salt.
Quantity Name: growth
In your answer, state the number alone without any accompanying words.

Example entries and their recorded answers appear below.
> print(dat)
                                   compound  result.value
1               CCN(CC)C(=O)c1ccc(O)c(OC)c1         0.138
2  Nc1nc(/C(=C/CC(=O)O)C(=O)N[C@@H]2C(=O)N3C(C(=O)O)=CCS[C@H]23)cs1         0.177
3  CCN(CC)CCCC(C)Nc1c2ccc(Cl)cc2nc2ccc(OC)cc12 (stereo not given) [Quinacrine dihydrochloride hydrate]           0.1
4  Cc1c(NC(=O)c2cccnc2)c(=O)n(-c2ccccc2)n1C         0.155

Below: the item to evaluate.
input: Need growth, item CC(=O)Oc1ccccc1C(=O)O
output: 0.147

* * *

# System: E. coli TESEC Mtb Asd
# Test Summary: growth (OD600 after 10 h); higher = more growth (less inhibition)
# Experimental Setup: arabinose induction (level): Low; compound 0.1 mM; raw OD600 reference: median of DMSO wells 0.417, cell-free background 0.041
Structures can show the parent of a compound that is named as a salt.
Range-based classes on measured growth: band A = under 0.3, band B = from 0.3 up to 0.4, band C = 0.4 and over

Reference set, count: 4
Compound	Class Label
COc1ccc2c3c1O[C@H]1C[C@@H](O)C=C[C@@]31CCN(C)C2 [Galanthamine hydrobromide]	band B
CCCCc1cc2ccccc2c(OCCN(C)C)n1 [Dimethisoquin hydrochloride]	band A
Cc1ncc(CO)c(CO)c1O [Pyridoxine hydrochloride]	band B
O=C(O)CCCC[C@@H]1SC[C@@H]2NC(=O)N[C@@H]21	band C

input: Just checking, what class would you give CCCC1O[C@@H]2C[C@H]3[C@@H]4CCC5=CC(=O)C=C[C@]5(C)[C@H]4[C@@H](O)C[C@]3(C)[C@]2(C(=O)CO)O1 (some centres not stated) [Budesonide] here?
output: band B

input: Just checking, what class would you give Cc1c(N(C)CS(=O)(=O)O)c(=O)n(-c2ccccc2)n1C here?
output: band C

input: Just checking, what class would you give NC(=O)c1ncn([C@@H]2O[C@H](CO)[C@@H](O)[C@H]2O)n1 here?
output: band C
